Source listed as ChEMBL document CHEMBL1177835.

Catalogue of MIC readings, one per entry.
system: Mycobacterium avium; assay: Antimycobacterial activity against Mycobacterium avium CNCTC My 330/88 after 21 days by microdilution method; format: functional; conditions: CNCTC My 330/88, 504 h

{"STRUCTURE_NOTATION": "O=c1oc2ccc(Br)cc2c(=S)n1Cc1ccc(Cl)c(Cl)c1", "MIC": "8 µM"}
{"STRUCTURE_NOTATION": "O=c1oc2ccc(Br)cc2c(=S)n1Cc1ccccc1", "MIC": "8 µM"}
{"STRUCTURE_NOTATION": "S=c1oc2c(Cl)cc(Cl)cc2c(=S)n1Cc1ccc(Cl)c(Cl)c1", "MIC": "62.5 µM"}

###

test system: Mycobacterium avium; test: Antimycobacterial activity against Mycobacterium avium CNCTC My 330/88 after 14 days by microdilution method; assay type: functional; conditions: CNCTC My 330/88, 336 h
Catalogue of MIC readings, one per entry.

{"STRUCTURE_NOTATION": "O=c1oc2c(Cl)cc(Cl)cc2c(=O)n1Cc1ccc(Cl)c(Cl)c1", "DISPLAY_UNIT": "µM", "MIC": 125}
{"STRUCTURE_NOTATION": "O=c1oc2ccc(Br)cc2c(=S)n1Cc1ccccc1", "DISPLAY_UNIT": "µM", "MIC": 8}
{"STRUCTURE_NOTATION": "S=c1oc2ccc(Br)cc2c(=S)n1Cc1ccccc1", "DISPLAY_UNIT": "µM", "MIC": 8}
{"STRUCTURE_NOTATION": "O=c1oc2ccccc2c(=S)n1Cc1ccc(Cl)c(Cl)c1", "DISPLAY_UNIT": "µM", "MIC": 1}
{"STRUCTURE_NOTATION": "O=c1oc2ccccc2c(=O)n1Cc1ccccc1", "DISPLAY_UNIT": "µM", "MIC": 32}
{"STRUCTURE_NOTATION": "O=c1oc2ccc(Cl)cc2c(=S)n1Cc1ccccc1", "DISPLAY_UNIT": "µM", "MIC": 4}
{"STRUCTURE_NOTATION": "S=c1oc2c(Cl)cc(Cl)cc2c(=S)n1Cc1ccc(Cl)c(Cl)c1", "DISPLAY_UNIT": "µM", "MIC": 62.5}
{"STRUCTURE_NOTATION": "O=c1oc2ccc(Cl)cc2c(=S)n1Cc1ccc(Cl)c(Cl)c1", "DISPLAY_UNIT": "µM", "MIC": 62.5}
{"STRUCTURE_NOTATION": "O=c1oc2c(Cl)cc(Cl)cc2c(=S)n1Cc1ccc(Cl)c(Cl)c1", "DISPLAY_UNIT": "µM", "MIC": 4}
{"STRUCTURE_NOTATION": "O=c1oc2ccc(Cl)cc2c(=O)n1Cc1ccc(Cl)c(Cl)c1", "DISPLAY_UNIT": "µM", "MIC": 16}
{"STRUCTURE_NOTATION": "Fc1ccc(Cn2c(=S)oc3ccc(Cl)cc3c2=S)cc1", "DISPLAY_UNIT": "µM", "MIC": 8}

###

Catalogue of log10 of MIC readings, one per entry.
test system: Mycobacterium tuberculosis; assay: Antimycobacterial activity against Mycobacterium tuberculosis CNCTC My 331/88 after 21 days by microdilution method; type: functional; conditions: CNCTC My 331/88, 504 h
OBSERVED_PROPERTY: log10 of MIC (log10 of the value in µM)

{"STRUCTURE_NOTATION": "O=c1oc2ccccc2c(=S)n1Cc1ccccc1", "log10 of MIC": 0.30}
{"STRUCTURE_NOTATION": "S=c1oc2ccc(Br)cc2c(=S)n1Cc1ccc(Cl)c(Cl)c1", "log10 of MIC": 0.90}
{"STRUCTURE_NOTATION": "S=c1oc2ccccc2c(=S)n1Cc1ccccc1", "log10 of MIC": 0.00}
{"STRUCTURE_NOTATION": "O=c1oc2ccc(Cl)cc2c(=O)n1Cc1ccc(F)cc1", "log10 of MIC": 1.51}
{"STRUCTURE_NOTATION": "S=c1oc2ccccc2c(=S)n1Cc1ccc(Cl)c(Cl)c1", "log10 of MIC": 0.30}
{"STRUCTURE_NOTATION": "S=c1oc2c(Cl)cc(Cl)cc2c(=S)n1Cc1ccc(Cl)c(Cl)c1", "log10 of MIC": 1.51}
{"STRUCTURE_NOTATION": "O=c1oc2ccc(Br)cc2c(=O)n1Cc1ccc(Cl)c(Cl)c1", "log10 of MIC": 1.51}
{"STRUCTURE_NOTATION": "S=c1oc2ccc(Br)cc2c(=S)n1Cc1ccccc1", "log10 of MIC": 0.30}
{"STRUCTURE_NOTATION": "CO[C@H]1/C=C/O[C@@]2(C)Oc3c(C)c(O)c4c(O)c(c(/C=N/N5CCN(C)CC5)c(O)c4c3C2=O)NC(=O)/C(C)=C\\C=C\\[C@H](C)[C@H](O)[C@@H](C)[C@@H](O)[C@@H](C)[C@H](OC(C)=O)[C@@H]1C", "log10 of MIC": -0.30}
{"STRUCTURE_NOTATION": "NNC(=O)c1ccncc1", "log10 of MIC": 0.00}
